Tested on: PC3
Assay: Cytotoxicity on human cells, PC3 (prostate)
Format: cell-based
Settings: PC-3, human cells, exposed 24 h and 48 h, 0.1 to 25 μM
Experimental: […] Dosages on Human cells (Huh7, Caco, MDA-MB 231, HCT 116, PC3, NCl, Fibroblast) Cytotoxicity: This method is based on an automated imaging analysis. […] These cells were then exposed for 24 h and 48 h to increasing concentrations of the compounds of the invention, from 0.1 to 25 μM in a final volume of 80 μL of culture medium. The cells are then set with a 4% paraformaldehyde solution and the nuclei are colored with Hoechst 3342 and counted according to automated imaging quantification. […]
measure: IC50 (µM)
Express the result in µM but write the number alone.

Check out these entries, answers already filled in.
- Oc1ccc(-c2cnc3cnc(-c4ccc(O)cc4)nc3c2)cc1: 25
- OCCNc1nc(NCc2ccccc2)c2ncc(Nc3ncccn3)cc2n1: 15
- Oc1ccc(Nc2ncc3ncc(-c4ccc(O)cc4)cc3n2)cc1: 15
- CC(=O)c1ccc(Nc2cnc3c(NCc4ccccc4)nc(NCCO)nc3c2)cc1: 3
- COc1cccc(Nc2cnc3c(NCc4ccccc4)nc(NCCO)nc3c2)c1: 5
- Cc1ncccc1Nc1cnc2cnc(-c3ccc(O)cc3)nc2c1: 6
- Oc1ccc(-c2ncc3ncc(Nc4ccon4)cc3n2)cc1: 20
- COc1ccc(Nc2cnc3c(NCc4ccccc4)nc(NCCO)nc3c2)cc1: 12

Okay, now this molecule:
What value of IC50 on PC3 does "Oc1ccc(-c2ncc3ncc(-c4ccccc4O)cc3n2)cc1" have?
20
